Assay summary: Antiproliferative activity against human SKM1-R cells after 48 hrs by DAPI-staining-based flow cytometric method
Assay type: functional, cell-based
pEC50: −log10 of the molar value.
Property label: pEC50

INSERT INTO results (molecule, observed_result) VALUES
  ('Nc1ncn([C@@H]2O[C@H](CO)[C@@H](O)[C@H]2O)c(=O)n1 [AZACITIDINE]', '< 5.00');
